TARGET DESC: Polyunsaturated fatty acid lipoxygenase ALOX15 (Homo sapiens) (UniProt P16050)
Sequence (P16050 whole entry, looked up): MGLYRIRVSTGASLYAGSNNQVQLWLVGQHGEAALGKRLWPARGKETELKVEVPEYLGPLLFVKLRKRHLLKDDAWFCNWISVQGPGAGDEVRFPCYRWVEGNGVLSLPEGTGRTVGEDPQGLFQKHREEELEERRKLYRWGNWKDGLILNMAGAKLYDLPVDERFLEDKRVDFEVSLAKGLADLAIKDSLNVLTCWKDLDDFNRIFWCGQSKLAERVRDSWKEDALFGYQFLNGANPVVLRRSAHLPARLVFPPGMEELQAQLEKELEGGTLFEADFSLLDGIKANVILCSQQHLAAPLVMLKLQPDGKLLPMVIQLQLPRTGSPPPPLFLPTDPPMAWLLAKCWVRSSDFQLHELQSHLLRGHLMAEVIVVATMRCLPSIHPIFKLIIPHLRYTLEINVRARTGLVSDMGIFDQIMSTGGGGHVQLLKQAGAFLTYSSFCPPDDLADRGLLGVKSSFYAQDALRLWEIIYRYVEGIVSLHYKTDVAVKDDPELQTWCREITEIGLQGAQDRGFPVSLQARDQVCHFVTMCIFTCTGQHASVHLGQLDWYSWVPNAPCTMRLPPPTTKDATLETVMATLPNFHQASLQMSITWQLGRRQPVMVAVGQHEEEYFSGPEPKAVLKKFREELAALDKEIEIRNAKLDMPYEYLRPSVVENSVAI
METHOD: Counterscreen qHTS for inhibitors of human arachidonate 12S-lipoxygenase (ALOX12): ALOX15 Assay
ASSAY CONTEXT: purified ALOX15 enzyme activity; series mostly up to 110 µM
Results filed as inconclusive are left out. The source made the active and inactive calls. Calls come from the whole dose curve; as a rule, active = well fitted curve in the direction sought with a large enough effect; inconclusive = small, poorly fitted or top-dose-only effect, or another doubt; inactive = no such curve, though single readings can be large or run the other way.
PROPERTY NAME: outcome

1. CSc1ccc(-c2ccccc2C=O)cc1 = inactive
2. CCOCCCNc1ncnc2c1CN(C1CCCNCC1)C(=O)CN2C (configuration not stated) = inactive
3. O=C1NCc2ccccc2CC12CCN(Cc1cnc3ccccc3c1)CC2 = inactive
4. O=C(NCc1ccncc1)c1cc(C2CC2)nc2c1c(C1CCCN1)nn2-c1ccccc1 (configuration not stated) = inactive
5. Cc1ccc(-c2ccccc2CN)c(C)c1 = inactive

Give outcome for all molecules that follow.
1. O=C1NCc2ccccc2CC12CCN(Cc1cnc3ccccc3c1)C2 (configuration not stated)
2. CC(C)OCCCNC(=O)c1cc(C2CC2)nc2onc(C3CCCN3)c12 (configuration not stated)
3. CC(C)OCCCNc1ncnc2c1CN(C1CCCNCC1)C(=O)CN2C (configuration not stated)
4. O=C(O)CCCC(=O)N1Cc2ccccc2CC2(CCCCN2CCc2ccccc2)C1 (configuration not stated)

A.
1. inactive
2. inactive
3. inactive
4. inactive

Give outcome for all molecules that follow.
1. CN1CCC(C(=O)N2Cc3ccccc3CC3(CCCN(CC4CCNCC4)C3)C2)CC1 (configuration not stated)
2. O=C1NC(=NC2CCCC2)C2(CCCN(Cc3ccsc3)C2)N1c1cc(F)cc(F)c1 (configuration not stated)
3. C[S+](=O)([O-])N1CC2(CCN(Cc3ccc(Cl)cc3)C2)Cc2ccccc21 (configuration not stated)

A.
["inactive", "inactive", "inactive"]

Give outcome for all molecules that follow.
1. CN1CC(=O)N(C2CCCNCC2)Cc2c(NCC3CC3)ncnc21 (configuration not stated)
2. CC(=O)N1CCCN(c2ncnc3c2CN(C2CCNCC2)C(=O)CN3C)CC1
3. O=C(c1cc(C2CC2)nc2c1c(C1CCCN1)nn2-c1ccccc1)N1CCOCC1 (configuration not stated)
4. Cc1ccc(-c2ccc(CN)cc2)cc1Cl
5. FC(F)(F)c1cccc(C2=NOC3(CCN(Cc4ccsc4)C3)C2)c1 (configuration not stated)
6. O=C1NC2(Cc3ccccc31)CN(C(=O)c1ccc3c(c1)OCO3)C2
7. COc1ccc(-c2cc(C(=O)NCC(C)C)c3c(C4CCCN4)noc3n2)cc1 (configuration not stated)

A.
["inactive", "inactive", "inactive", "inactive", "inactive", "inactive", "inactive"]

Give outcome for all molecules that follow.
1. COc1cccc([S+](=O)([O-])N2CCn3c(nn(-c4cccc(Cl)c4)c3=O)C2)c1
2. N#Cc1cccc(CN2CCCC(c3nc4ccc(F)cc4c(=O)[nH]3)C2)c1 (configuration not stated)
3. CCOCCNc1ncnc2c1CN(C1CCNCC1)C(=O)CN2C

A.
["inactive", "inactive", "inactive"]

----------
TARGET DESC: Polyunsaturated fatty acid lipoxygenase ALOX15 (Homo sapiens) (UniProt P16050)
METHOD: Counterscreen qHTS for inhibitors of human arachidonate 12S-lipoxygenase (ALOX12): ALOX15 Assay
ASSAY CONTEXT: purified ALOX15 enzyme activity; series mostly up to 110 µM
Records with an inconclusive call do not appear. Activity calls are given as the source filed them. The call rests on the fitted dose curve; in most records, active means well fitted curve in the direction sought with a large enough effect; inconclusive means small, poorly fitted or top-dose-only effect, or another doubt; inactive means no such curve, though single readings can be large or run the other way.
PROPERTY NAME: outcome

1) CN1CC(=O)N(C2CCNC2)Cc2c1ncnc2N1CCC(N2CCCCC2)CC1 (stereo unspecified) = inactive
2) CNC(=O)c1cn2c(n1)CN([S+](C)(=O)[O-])CC2 = inactive
3) COc1cccc([S+](=O)([O-])N2CCCC3(CC(c4cccnc4)=NO3)C2)c1 (stereo unspecified) = inactive
4) O=C1NCc2ccccc2CC12CCN(Cc1cccc(OC(F)(F)F)c1)C2 (stereo unspecified) = inactive
5) O=c1[nH]c(C2CCCN(Cc3ccc(-c4cc(F)cc(F)c4)cc3)C2)nc2ccc(F)cc12 (stereo unspecified) = inactive

Give outcome for all compounds that follow.
1. NCc1ccccc1-c1ccc(O)cc1
2. O=C1Nc2ccccc2CN(C/C=C/c2ccccc2)C12CCNC2 (stereo unspecified)
3. COc1ccc(N2CC3CCC(C2)N3Cc2cccc(Cl)c2)cc1

A.
1: inactive; 2: inactive; 3: inactive

----------
TARGET DESC: Polyunsaturated fatty acid lipoxygenase ALOX15 (Homo sapiens)
METHOD: Counterscreen qHTS for inhibitors of human arachidonate 12S-lipoxygenase (ALOX12): ALOX15 Assay
ASSAY CONTEXT: purified ALOX15 enzyme activity; series mostly up to 110 µM
Results filed as inconclusive are left out. Active and inactive are the calls of the source. Calls come from the whole dose curve; as a rule, active = well fitted curve in the direction sought with a large enough effect; inconclusive = small, poorly fitted or top-dose-only effect, or another doubt; inactive = no such curve, though single readings can be large or run the other way.
PROPERTY NAME: outcome

// below: answered compounds
1. Cc1ccc(-c2ccccc2C=O)cc1Cl = inactive
2. O=C1NCCN1C1CCN(Cc2ccc(F)cc2)CC1 = inactive
3. CN1CC(=O)N(C2CCCNCC2)Cc2c1ncnc2N1CCN(c2ccccn2)CC1 (stereo unspecified) = inactive
4. CCC(=O)N1Cc2ccccc2CC2(CCCN(CC3CCNC3)C2)C1 (stereo unspecified) = inactive
5. Cn1nc(C2CCCN2)c2c(C(=O)NCc3cccs3)cc(C3CC3)nc21 (stereo unspecified) = inactive
6. CN1CC(=O)N(c2ccc(Cl)cc2)Cc2c(NC3CCNCC3)ncnc21 = inactive
7. Cc1cc(C(=O)NCc2ccncc2)c2c(C3CCNCC3)noc2n1 = inactive
8. Cn1nc(C2CCNC2)c2c(C(=O)NCc3ccc(F)cc3)cc(C3CC3)nc21 (stereo unspecified) = inactive

Give outcome for all compounds that follow.
1. CCOc1cccc(CN2CCCC23Cc2ccccc2CNC3=O)c1 (stereo unspecified)
2. COc1ccc(CNc2ncnc3c2CN(C2CCNC2)C(=O)CN3C)cc1OC (stereo unspecified)
3. COc1ccc(CC(=O)N2Cc3ccccc3CC23CCCN([S+](C)(=O)[O-])C3)cc1 (stereo unspecified)

A.
inactive
inactive
inactive

----------
TARGET DESC: Polyunsaturated fatty acid lipoxygenase ALOX15 (Homo sapiens) (UniProt P16050)
METHOD: Counterscreen qHTS for inhibitors of human arachidonate 12S-lipoxygenase (ALOX12): ALOX15 Assay
ASSAY CONTEXT: purified ALOX15 enzyme activity; series mostly up to 110 µM
Results filed as inconclusive are left out. Active and inactive are the calls of the source. Calls follow the shape of the dose curve; as a rule, active = well fitted curve in the direction sought with a large enough effect; inconclusive = small, poorly fitted or top-dose-only effect, or another doubt; inactive = no such curve, though single readings can be large or run the other way.
PROPERTY NAME: outcome

1) COc1cccc(N2C(=O)NC(=NC3CCCCC3)C23CCN(CC2CC2)CC3)c1 = inactive
2) CN1CC(=O)N(c2cccc(F)c2)Cc2c1ncnc2N1CCC(F)CC1 = inactive
3) O=C(c1cc(C2CC2)nc2c1c(C1CCCN1)nn2-c1ccccc1)N1CCC(F)CC1 (stereo not given) = inactive
4) Cn1nc(C2CCCNC2)c2c(C(=O)NCC(F)(F)F)cc(C3CC3)nc21 (stereo not given) = inactive
5) O=C(c1ccccn1)N1CCc2nc(C3CC3)nc(-c3ccc(Cl)cc3)c2C1 = inactive
6) Cn1ncc2c(C(=O)NCCc3ccc(Cl)cc3)cc(-c3ccc([S+](C)(=O)[O-])cc3)nc21 = inactive

Give outcome for all molecules that follow.
1. COc1ccc(CN2CCCCC23Cc2ccccc2CNC3=O)c(OC)c1 (stereo not given)
2. Cn1nc(C2CCCN2)c2c(C(=O)NCc3ccc(F)cc3)cc(C3CC3)nc21 (stereo not given)
3. CC1CCCCC1Nc1ncnc2c1CN(C1CCCNCC1)C(=O)CN2C (stereo not given)

A.
inactive
inactive
inactive

Q. Hi! What's the reported outcome for O=C(c1ccccc1F)N1CC(Oc2ccc3c(c2)OCO3)C1 on Polyunsaturated fatty acid lipoxygenase ALOX15 (Homo sapiens) (UniProt P16050)?
A. inactive

----------
TARGET DESC: Polyunsaturated fatty acid lipoxygenase ALOX15 (Homo sapiens)
METHOD: Counterscreen qHTS for inhibitors of human arachidonate 12S-lipoxygenase (ALOX12): ALOX15 Assay
ASSAY CONTEXT: purified ALOX15 enzyme activity; series mostly up to 110 µM
Inconclusive results are not listed. Calls of active or inactive are those of the source. Calls come from the whole dose curve; as a rule, active = well fitted curve in the direction sought with a large enough effect; inconclusive = small, poorly fitted or top-dose-only effect, or another doubt; inactive = no such curve, though single readings can be large or run the other way.
PROPERTY NAME: outcome

1. CCc1ccc(S(=O)(=O)c2nnn3c2nc(NCc2ccc(F)cc2)c2ccccc23)cc1 = inactive
2. O=Cc1cccc(N2CCN(C(=O)c3ccc4c(c3)OCO4)CC2=O)c1 = inactive
3. COc1ccc(-c2cc(C(=O)NC3CCNCC3)c3c(C4CCCN4)noc3n2)cc1 (stereo not drawn) = inactive
